Tested on: U-251
Test: NCI tumour cell line growth inhibition, 48 h
Calls of active or inactive are those of the source. Cut-off read from the data, not from the text of the source: active = GI50 up to about 1.1 µM and inactive = higher.
Reported GI50 values for a set of molecules

{"Molecule": "COc1cc(-c2oc3c(OC)c(O)c(OC)c(O)c3c(=O)c2OC)cc(OC)c1OC", "Result": "47.6 µM (inactive)"}
{"Molecule": "CC(=O)O[C@H]1[C@@H](OC2CCCC2(c2ccccc2)c2ccccc2)O[N+]([O-])=C[C@@]12COCc1cc3c(cc12)OCO3 (stereo partly specified)", "Result": "7.48 µM (inactive)"}
{"Molecule": "C(=C\\c1cccc(/C=C/c2ccccn2)n1)/c1ccccn1", "Result": "> 100 µM (inactive)"}
{"Molecule": "COc1ccc(CNc2nc(NC3CCCCC3)nc(NC3CCCCC3)n2)cc1", "Result": "4.06 µM (inactive)"}
{"Molecule": "Cn1c2ccccc2c2ccc3c(c21)C(=O)C=CC3=O", "Result": "11.4 µM (inactive)"}

Short answer please: GI50, U-251, entry CC(=O)Oc1ccc2c3c1[C@@H]1O[C@@H]1c1cccc(c1-3)[C@@H]1O[C@H]21
2.12 µM (inactive)

====

Tested on: TK-10
Test: NCI tumour cell line growth inhibition, 48 h
Calls of active or inactive are those of the source. Cut-off read from the data, not from the text of the source: active = GI50 up to about 1.1 µM and inactive = higher.
# Lookup of reported GI50 keyed by entry

Solved entries:
{"Compound": "NC(=S)NNc1c([N+](=O)[O-])cnn(-c2ccccc2)c1=O", "Study system": "TK-10", "GI50": "24 µM (inactive)"}
{"Compound": "COc1ccc(N(C(=O)NCCO)c2ccccc2)cc1", "Study system": "TK-10", "GI50": "> 100 µM (inactive)"}
{"Compound": "O=C1CSC2=NC3=C(CSC/C3=C\\c3ccccc3)C(c3ccccc3)N12 (stereo unspecified)", "Study system": "TK-10", "GI50": "> 100 µM (inactive)"}
{"Compound": "COc1ccc(/C=N/n2c(=O)[nH]c3ccccc3c2=O)cc1", "Study system": "TK-10", "GI50": "> 100 µM (inactive)"}
{"Compound": "COc1ccc2c3c(c(=O)n(C)c2c1OC)C=CC(C)(C)O3", "Study system": "TK-10", "GI50": "28.8 µM (inactive)"}

I am curious: what GI50 value has been reported for COc1cc(/C=C(\C#N)C(=O)c2ccccc2)cc(OC)c1OC ?
> 100 µM (inactive)

====

Test system: SF-295
Test: NCI tumour cell line growth inhibition, 48 h
Active and inactive are the calls of the source. Cut-off read from the data, not from the text of the source: active = GI50 up to about 1.1 µM and inactive = higher.
Overview of recorded GI50 for various molecules

Take a look at these entries with their results.
{"Molecule": "CC1CCCc2c1c1ccc3c(O)cccc3c1oc2=O (stereo unspecified)", "GI50": "14.8 µM (inactive)"}
{"Molecule": "CC(C)(C)C1CCP(=O)(c2ccccc2)CC1 (stereo unspecified)", "GI50": "> 100 µM (inactive)"}

Which GI50 is listed for O=C(c1cc(O)ccc1O)c1ccccc1C(Cl)(Cl)Cl ?
55.7 µM (inactive)

Sample O=c1cccccc1NCCCNc1cccccc1=O — what was its GI50?
> 100 µM (inactive)

Consider the molecule shown here: Cc1ccc2c(C3Cc4ccccc4N3C(=O)/C=C\C(=O)O)c(C)[nH]c2c1 (stereo unspecified) What is its recorded GI50?
28.8 µM (inactive)

Which value of GI50 has been reported for CCCCCCCCCCCCCC(=O)CSCCNC(=O)CCNC(=O)[C@@H](O)C(C)(C)COP(=O)(O)OP(=O)(O)OCC1OC(n2cnc3c(N)ncnc32)C(O)C1OP(=O)(O)O (stereo partly specified) in the records?
13.4 µM (inactive)

Entry under review: CC(=O)OC(C(=O)NNC(=O)OC(C)(C)C)c1ccccc1 (stereo unspecified) . Reported GI50?
> 100 µM (inactive)

Which value of GI50 has been reported for N#Cc1c(-c2ccc(Cl)cc2)cc(-c2ccc(Nc3ccnc4cc(Cl)ccc34)cc2)[nH]c1=O in the records?
16.6 µM (inactive)
